Provenance of the data: a melting point compilation (Tetko et al.; mined from patent text by program, amines drawn as free bases though some values may be those of a salt)

Can you tell me melting point for the items I'm about to list?

# lookup: melting point of CCOC(=O)c1ccnc(NC(=O)CCc2ccccc2)c1
107 to 108 °C

Note, next up: COc1ccc(OC)c2nc(Cl)c(C=O)cc12
177 to 178 °C

For Cc1ccc(CNc2ncnc3c(N4CCOCC4)nc(N4CCC(N(C)C)CC4)nc23)cc1 then?
142 to 144 °C

Now this one: Cc1cc(Oc2c(Cl)cc(C(F)(F)F)cc2Cl)nn1C(=O)NCC=O
111 to 113 °C

Also, Fc1cccc2[nH]c(-c3ccccc3)cc12 please.
65 to 67 °C

Next up: CCCc1nc(SC(F)F)c(C(=O)O)n1Cc1ccc(-c2ccccc2S(=O)(=O)NC(=O)NCc2cccs2)cc1
142 °C

Okay, and CNc1cccc([N+](=O)[O-])c1C#N ?
203 to 206 °C

Again, but for CCCCc1c2c(nc3c1CCCC3)CCCC2
35 to 37 °C

Item: CNCCCn1c(-c2ccc(OC)cc2)csc1=Nc1ccccc1
143 to 146 °C

Next entry: Cc1cc(S(=O)(=O)Nc2cccc3ccccc23)c2c(C)ccc(C(C)C)cc1-2
140 to 142 °C

Further, for O=C(Nc1ccccc1)OCC1(COC(=O)Nc2ccccc2)CS(=O)c2ccccc2C1=O (stereo not given) ?
220 to 222 °C

Now try Cc1ccc(-c2cnc3c(N)ncnc3n2)cc1 .
315 °C

Check CCC(=O)c1ccccc1CS(=O)(=O)NC(=O)Nc1nc(OC)cc(OC)n1 too.
155 to 158 °C

Also, CC(=O)n1ccc2cc(C(=O)NC(C)(C)C)ccc21 please.
187 °C

What do you have for Cc1ccc(N2CCc3ccccc32)c([N+](=O)[O-])c1 ?
93 to 95 °C

Likewise for C[C@H](NC(=O)c1c[nH]c2ncc(C3CC3)nc12)C(C)(C)CS(C)(=O)=O ?
232 to 234 °C

For CCC(C)(C)c1ccc(OCCCCSC2C(=O)N(c3c(Cl)cc(Cl)cc3Cl)N=C2Nc2ccc(Cl)cc2Cl)c(C(C)(C)CC)c1 (stereo not given) then?
142 to 144 °C

Do the same for CC(C)[C@H](NC(=O)OCc1ccccc1)C(=O)N[C@@H](Cc1ccccc1)C(=O)CSCc1ccco1 please
122 to 125 °C

What do we get for COc1ccccc1Oc1c(NS(=O)(=O)c2ccc(C(C)(C)C)cc2)nc(SC)nc1OCCOc1ncc(Br)cn1 ?
117 to 121 °C

And for O=[N+]([O-])c1cc(C(F)F)cc2nc(C(F)(F)F)[nH]c12 ?
132 to 134 °C

====

For each entry below, report its melting point value.
Express it in °C; write the number only.

Item COc1ccc(SC(C)(CC=C(C)C)C(=O)NO)cc1 (stereo not given) has what recorded melting point?
89

# iterate: N#Cc1ccc(C(=O)C23CCCN2C(=O)N(c2cc(Cl)cc(Cl)c2)C3=O)cc1 (stereo not given)
72.1

Now consider O=C(Nc1ccccc1)c1cc2ccccc2s1 and answer again.
188

What about this molecule? CSc1nn(C(=O)NC(C)c2ccc(Cl)c(Cl)c2)c(=O)n1N (stereo not given)
132

====

quantity_name: melting point

What melting point value was documented for this compound, COc1ccc(C2CC3(C)C(C=CC3(C)O)C3CCC4=CC(=O)CCC4C23)cc1 (stereo not given) ?
192 °C

Then COc1cc(OCc2nc(-c3ccco3)oc2C)ccc1C=O ?
111 to 112 °C

For O=[N+]([O-])c1cccc(C2Nn3cc(-c4ccc(-c5ccccc5)cc4)nc3S2)c1 (stereo not given) then?
263 to 265 °C

# iterate: Cc1ccc2c(c1)c1c(n2CCCl)C(=O)CCC1
108 °C

Quick one: C[C@@H](c1ccc(C(=O)N(C)NC(N)=S)cc1)[C@](O)(Cn1cncn1)c1ccc(F)cc1F
172 to 173 °C

CC(C)(C)NC(=O)OC1CCOC1=O (stereo not given) ?
104 to 106 °C

Further, for OCc1nc(-c2ccc(Cl)cc2)co1 ?
68 to 71.5 °C

Further, for Nc1c(-c2cc(Cl)ccc2O)c2cc(Cl)c(Cl)cc2[nH]c1=O ?
305 to 307 °C

Subsequent entry: Cc1ccc(-c2nnc(N3CCC(C(N)=O)CC3)nc2-c2ccc(C)cc2)cc1
222 to 224 °C

Also Cc1oc(-c2cccc(Br)c2)nc1CCO ?
92 to 93 °C
